# Protocol: qHTS assay to identify small molecule agonists of the peroxisome proliferator-activated receptor delta (PPARd) signaling pathway - cell viability counter screen (AID 743211); also: nearly all actives have a fitted effect of over 55% in size
# Condition Details: PPARd-bla HEK293H viability, CellTiter-Glo luminescence, 17 h; series mostly up to 62.6 µM
# Text: U.S. Tox21 Program National Center for Advancing Translational Sciences [NCATS] NIH Chemical Genomics Center [NCGC] U.S. Environmental Protection Agency [EPA] National Institutes of Environmental Health Sciences [NIEHS] National Toxicology Program [NTP] U.S. Food and Drug Administration [FDA] […]
Records with an inconclusive call do not appear. The source made the active and inactive calls. Calls follow the shape of the dose curve; as a rule, active = well fitted cell-killing curve with a large enough effect in the repeat runs; inconclusive = weak or mixed curves; inactive = no such curve, though single readings can be large or run the other way.
Quantity Name: outcome

Some entries whose results are on file:
O=c1[nH]nnc2ccccc12 : inactive
Cc1cccc(O)c1 : inactive
N[C@@H](Cc1cc(I)c(Oc2cc(I)c(O)c(I)c2)c(I)c1)C(=O)O : inactive
COc1ccc(Nc2ccccc2)c(C)c1 : inactive
CCc1cccc(C)c1N : inactive

# input compound: CCc1ccc(CCOc2ccc(CC3SC(=O)NC3=O)cc2)nc1 (configuration not stated) ; wanted: its outcome
inactive

Also O=C(O)c1ccccc1C(c1ccc(O)cc1)c1ccc(O)cc1 , if possible.
inactive
